Catalogue of viability decrease (inhibition) values
# Assay Text: reduced SW480 viability measured with CellTiter-Glo, NPC library, primary (AID 1117343)
# Experimental Conditions: CellTiter-Glo luminescence; at 20 µM (top of the series)
Peptide text beside a SMILES is read from it.
Value Kind: viability decrease (inhibition) (%)

> print(dat)
                                    molecule                       value.kind  data.value
 1  C=CCSCC1Nc2cc(Cl)c(S(N)(=O)=O)cc2S(=O)(=O)N1 (configuration not stated)  viability decrease (inhibition)        -6.2
 2         Nc1ccc(S(=O)(=O)Nc2ccc(Cl)nn2)cc1  viability decrease (inhibition)        15.5
 3  COC(=O)CCc1ccc(OCC(O)CNC(C)C)cc1 (configuration not stated)  viability decrease (inhibition)        39.7
 4  O=C(O)[C@@H]1[C@H]2C[C@H]3c4[nH]c5ccccc5c4CCN3C[C@@H]2CC[C@@H]1O  viability decrease (inhibition)          13
 5  CC(C(=O)O)c1ccc(CC2CCCC2=O)cc1 (configuration not stated)  viability decrease (inhibition)        37.6
 6                       C=CCc1ccc(O)c(OC)c1  viability decrease (inhibition)       -11.7
 7                O=C(O)/C=C(\CC(=O)O)C(=O)O  viability decrease (inhibition)        39.3
 8  Nc1ncnc2c1ncn2[C@@H]1O[C@H](CO)[C@@H](O)[C@H]1O  viability decrease (inhibition)          27
 9  Cc1ncc([N+](=O)[O-])n1CC(O)CCl (configuration not stated)  viability decrease (inhibition)       -45.6
10  CC(=O)Nc1ccc(OCC(O)CNC(C)C)cc1 (configuration not stated)  viability decrease (inhibition)        26.9
11  CCCCCN(CCCCC)C(=O)C(CCC(=O)O)NC(=O)c1ccc(Cl)c(Cl)c1 (configuration not stated)  viability decrease (inhibition)        40.9
12                   O=C(OCc1ccccc1)c1ccccc1  viability decrease (inhibition)       -12.6
13                   CC1=NN(c2ccccc2)C(=O)C1  viability decrease (inhibition)        33.2
14  CC(C(=O)O)c1ccc(C(=O)c2cccs2)cc1 (configuration not stated)  viability decrease (inhibition)        -1.2
15  C[C@@H]1CN(c2c(F)c(F)c3c(=O)c(C(=O)O)cn(C4CC4)c3c2F)C[C@H](C)N1  viability decrease (inhibition)        24.4
16  C[C@]12CCC(=O)C=C1CC[C@@H]1[C@@H]2[C@@H](O)C[C@@]2(C)[C@H]1CC[C@]2(O)C(=O)COP(=O)(O)O  viability decrease (inhibition)        -5.9
17  NCC1CCC(C(=O)O)CC1 (configuration not stated)  viability decrease (inhibition)         2.1
18  CO[C@@]12[C@H](COC(N)=O)C3=C(C(=O)C(C)=C(N)C3=O)N1C[C@@H]1N[C@@H]12  viability decrease (inhibition)         124
19  COC(=O)[C@H](Cc1ccccc1)NC(=O)[C@@H](N)CC(=O)O (H-Asp-Phe-OMe)  viability decrease (inhibition)        -6.8
20   COc1ccc(C(=O)NCc2ccc(OCCN(C)C)cc2)cc1OC  viability decrease (inhibition)        -4.6
21  COc1cc(C(=O)NS(=O)(=O)c2ccccc2C)ccc1Cc1cn(C)c2ccc(NC(=O)OC3CCCC3)cc12  viability decrease (inhibition)         120
22  COc1ccc(C(=O)CC(=O)c2ccc(C(C)(C)C)cc2)cc1  viability decrease (inhibition)        18.1
23  COc1ccc2c(c1)c(CC(=O)OCC(=O)O)c(C)n2C(=O)c1ccc(Cl)cc1  viability decrease (inhibition)        33.3
24  O=C1C(=O)c2ccccc2C(O)=C1C1CCC(c2ccc(Cl)cc2)CC1 (configuration not stated)  viability decrease (inhibition)         144
25  CN(C)c1ccc(C(=C2C=CC(=[N+](C)C)C=C2)c2ccc(N(C)C)cc2)cc1  viability decrease (inhibition)         146
26  C#C[C@]1(O)CC[C@H]2[C@@H]3CCc4cc(O)ccc4[C@H]3CC[C@@]21C  viability decrease (inhibition)        65.6
27  CCOC(=O)C1=C(C)NC(C)=C(C(=O)OCC)C1c1ccccc1/C=C/C(=O)OC(C)(C)C  viability decrease (inhibition)         158

* * *

# Assay Text: Wnt pathway potentiators raising nuclear beta-catenin – imaging, WNT3A-conditioned medium, mouse C2C12, NPC library, primary screen (AID 1117326); also: reference of the scale not given here
# Experimental Conditions: at 10 µM, stronger effect = higher value
Starred links: 1 amine or outer side, 2 acyl side, 3 side chain; linkers in the order of their positions; H or OH if unused. Positions of bridges follow the written chain, without caps; N, C: chain ends. Non-standard residues stand in square brackets, D forms with d. Residues, ends and D or L forms follow the SMILES beside them. Chains are numbered I, II in the order given. Actinocin(9to1) = Cc1c2oc3c(C)ccc(C(=O)[*:1])c3nc-2c(C(=O)[*:2])c(N)c1=O; NMeV = CN[C@H](C(=O)O)C(C)C; Sar = CNCC(=O)O
Value Kind: nuclear beta-catenin stimulation (%)

Molecule	Units	Data Value
CCN(CC)CCNC(=O)c1cc(S(C)(=O)=O)ccc1OC	%	1.9
COc1cc(OC)cc(OC)c1	%	1.2
O=C1C(O)=C(O)C(=O)C(O)=C1O	%	-1.5
O=c1[nH]cnc2nc[nH]c12	%	-0.2
COc1ccc(NS(=O)(=O)c2ccc(N)cc2)nn1	%	-1.8
CC(C)(Oc1ccc(CCNC(=O)c2ccc(Cl)cc2)cc1)C(=O)O	%	6.1
CCCN[C@H]1CCc2nc(N)sc2C1	%	0.9
Nc1ccc(S(=O)(=O)Nc2nccs2)cc1	%	0
Nc1ccc(C(=O)NCC(=O)O)cc1	%	0.5
C=Cc1c(C)c2cc3[nH]c(cc4nc(cc5nc(cc1[nH]2)C(C)=C5CCC(=O)O)C(CCC(=O)O)=C4C)c(C)c3C=C	%	-3.7
CC[N+](C)(C)Cc1ccccc1Br	%	-0.9
Cc1c(O)cccc1C(=O)N[C@@H](CSc1ccccc1)[C@H](O)CN1C[C@H]2CCCC[C@H]2C[C@H]1C(=O)NC(C)(C)C	%	2.3
CCn1cc(C(=O)O)c(=O)c2cnc(N3CCNCC3)nc21	%	1.9
CCC(Cc1c(I)cc(I)c(N)c1I)C(=O)O (centres undefined)	%	1.2
CCC1=C(C)CN(C(=O)NCCc2ccc(S(=O)(=O)NC(=O)NC3CCC(C)CC3)cc2)C1=O (centres undefined)	%	1
CN1[C@@H]2CC[C@H]1CC(OC(=O)C(O)c1ccccc1)C2 (some centres undefined)	%	-0.1
CC1(C)O[C@H]2CC(=O)OC[C@]23[C@H]2CC[C@@]4(C)[C@H](c5ccoc5)OC(=O)[C@H]5O[C@]54[C@]2(C)C(=O)C[C@@H]13	%	-0.3
COC(=O)Nc1nc2ccc(C(=O)c3cccs3)cc2[nH]1	%	80.4
Cc1c2oc3c(C)ccc(C(=O)N[C@@H]4C(=O)N[C@H](C(C)C)C(=O)N5CCC[C@H]5C(=O)N(C)CC(=O)N(C)[C@@H](C(C)C)C(=O)O[C@@H]4C)c3nc-2c(C(=O)N[C@@H]2C(=O)N[C@H](C(C)C)C(=O)N3CCC[C@H]3C(=O)N(C)CC(=O)N(C)[C@@H](C(C)C)C(=O)O[C@@H]2C)c(N)c1=O (I: T[dV]P[Sar][NMeV] / II: T[dV]P[Sar][NMeV]; ester I:1-I:C, II:1-II:C; linker I:N-II:N via Actinocin(9to1))	%	92.5

* * *

# Assay Text: inhibition of endothelial tube formation, primary screen, imaging, VEGF stimulated, CD31 staining, tube area, NPC library (AID 1117340)
# Experimental Conditions: VEGF-stimulated ADSC/ECFC co-culture, at 10 µM
Calls of active or inactive are those of the source.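 Rule for the calls: active = compound that reduces growth-factor-driven endothelial tube area in a mixed cell culture, no cutoff stated; inactive = the rest.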
Outcomes: true = active, false = inactive

> print(dat)
                                    compound  group.label
 1  CC(=O)Oc1cccc2c1C(=O)c1c(OC(C)=O)cc(C(=O)O)cc1C2=O         true
 2  COc1ccc(C(=O)CC(=O)c2ccc(C(C)(C)C)cc2)cc1        false
 3     CN1CCN(C2=Nc3ccccc3Oc3ccc(Cl)cc32)CC1         true
 4                        COC(=O)[C@@H](N)CS        false
 5  NCC1CCC(C(=O)Oc2ccc(CCC(=O)O)cc2)CC1 (stereo not drawn)        false
 6  CC1=C(C(=O)O)N2C(=O)[C@@H](NC(=O)[C@H](N)C3=CCC=CC3)[C@H]2SC1        false
 7  CC(Oc1c(Cl)cccc1Cl)C1=NCCN1 (stereo not drawn)        false
 8  CC(N)C(=O)OC(C)(C)Cc1ccc(Cl)cc1 (stereo not drawn)        false
 9                Cc1ccc2c(Cl)cc(Cl)c(O)c2n1        false
10  CCCCc1nc(Cl)c(CO)n1Cc1ccc(-c2ccccc2-c2nn[nH]n2)cc1        false
11  CC1(C)S[C@@H]2[C@H](NC(=O)C(C(=O)O)c3ccccc3)C(=O)N2[C@H]1C(=O)O (stereo partly drawn)        false
12  CCN(CCCCOC(=O)c1ccc(OC)c(OC)c1)C(C)Cc1ccc(OC)cc1 (stereo not drawn)        false
13  CC(C)(C)NC(=O)[C@@H]1CN(Cc2cccnc2)CCN1C[C@@H](O)C[C@@H](Cc1ccccc1)C(=O)N[C@H]1c2ccccc2C[C@H]1O        false
14  O=C(O)CCCC[C@@H]1SC[C@@H]2NC(=O)N[C@@H]21        false
15  COc1ccc(CCN(C)CCCC(C#N)(c2ccc(OC)c(OC)c2)C(C)C)cc1OC (stereo not drawn)        false
16  CC1CC(OC(=O)C(O)c2ccccc2)CC(C)(C)N1C (stereo not drawn)        false
17  O=C(Nc1ccc([N+](=O)[O-])cc1Cl)c1cc(Cl)ccc1O         true
18  CN1[C@@H]2CC[C@H]1CC(OC(=O)c1c[nH]c3ccccc13)C2 (stereo partly drawn)        false
19                   CCN(CC)C(=O)c1cccc(C)c1        false
20  C#C[C@]1(O)CC[C@H]2[C@@H]3CCc4cc(O)ccc4[C@H]3CC[C@@]21C         true
21  Nc1c(Br)cc(Br)cc1CNC1CCC(O)CC1 (stereo not drawn)        false
22  CC(=O)Nc1ccc(S(=O)(=O)Nc2ccc([N+](=O)[O-])cc2)cc1        false
23  C[C@@H]1C[C@H]2[C@@H]3CCC4=CC(=O)C=C[C@]4(C)[C@@]3(F)[C@@H](O)C[C@]2(C)[C@H]1C(=O)CO        false
